All values here come from ChEMBL document CHEMBL1130171.

- Species on record: Rattus norvegicus
- Procedure Text: In vitro stimulation of norepinephrine release from hippocampal nerve endings.
- Type: functional
- Details: Hippocampus
Measured Quantity: EC50 (µM)
// return numeric value only (unit: µM, not printed)

NC(Cn1cc([N+](=O)[O-])c(=O)[nH]c1=O)C(=O)O (centres undefined) ... 15
C=C(C)[C@H]1CN[C@H](C(=O)O)[C@H]1CC(=O)O ... 3.7
NC(Cc1ccc([N+](=O)[O-])c(O)c1[N+](=O)[O-])C(=O)O (centres undefined) ... 74

As a next step, examine the compound that follows.
**Q:** Given the entry Cc1onc(O)c1C[C@H](N)C(=O)O [(S)-AMPA] , report its measured EC50.
**A:** 6.7
